Test: S. cerevisiae growth modulation with rapamycin, primary screen, strain BY4716, OD600, 96 h (AID 1091); also: test concentration not given here
Settings: higher = more signal, called active from +8 up or from −8 down
Answer condition not met if z-score is under 0.1, and condition met if it is 0.1 or more.

| STRUCTURE_AS_SMILES | LABEL_VALUE |
| --- | --- |
| [N-]=[N+]=NCc1ccccc1C[C@]1(C(=O)O)N=C(c2ccc(OCCCO)cc2)O[C@H]1c1ccccc1 | condition not met |
| O=C1O[C@H](c2ccccc2)[C@H](c2ccccc2)N2[C@H]1[C@@H](C(=O)NC[C@H](O)c1ccccc1)[C@]1(C(=O)Nc3ccc(C#CCCO)cc31)[C@H]2c1ccc(O)cc1 | condition met |
| CC(=O)NCCCC[C@@H]1NC(=O)[C@@H]2C[C@H](C(=O)NCCCCCCNC(=O)CS)[C@H](c3ccc(O)cc3)N2C1=O | condition met |
| CCOC(=O)C[C@H]1[C@H](OC(=O)c2ccccc2-c2ccccc2)[C@@H](NC(=O)c2ccc3ccccc3c2)c2cc(OCCCO)ccc2N1C(=O)c1ccc2ccccc2n1 | condition met |
| CC(=CC1CCCCC1)[C@@H](NC(=O)c1ccc(C(F)(F)F)cc1)c1ccc(-c2ccccc2)cc1 | condition not met |

Enquiry: Does the reported z-score for "Cc1ccc(S[C@]2(C(=O)NCC(C)C)CC(=O)N(Cc3ccccc3)[C@@H]2c2ccc(CO)cc2I)cc1" fall at or above the 0.1 mark?
Return: condition met

Enquiry: Exam item: decide whether the reported z-score for "CC(C)C(=C=CC[C@@H](O)c1ccccc1OCCO)C[C@@H](O)c1ccccn1" is at least 0.1.
Return: condition not met

----------
Tested on: wheat germ agglutinin (Triticum aestivum), Alexa647-labelled
Assay: wheat germ agglutinin binders on compound microarrays, profiling panel, artefact control for SMM control-protein annotation, biochemical, small-molecule microarray, 635/667 nm fluorescence (AID 1140);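 also: score merges 667 nm feature emission with signal to noise over triplicate slides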
Settings: WGA-A647 binding, 635 nm fluorescence, higher = more signal
Where composite z-score equals or exceeds 0.3, the correct label is YES; where it does not, the label is NO.

| COMPOUND | TESTED_SYSTEM | LABEL_VALUE |
| --- | --- | --- |
| O=C(O)[C@H]1C[C@H]2C(=O)NCC(=O)N2[C@H]1c1ccc(O)cc1 | wheat germ agglutinin (Triticum aestivum), Alexa647-labelled | NO |

Enquiry: Test whether the compound "COC(=O)[C@]1(Cc2ccccc2N=[N+]=[N-])N=C(c2ccc(OCCCO)cc2)O[C@@H]1c1ccccc1N=[N+]=[N-]" records composite z-score of 0.3 or higher.
Return: NO

Enquiry: Is the recorded value of composite z-score equal to or greater than 0.3 for this compound? O=C1C2C=CC(C(O)c3cccs3)N(Nc3ccccc3F)C2C(=O)N1c1ccccc1 (stereo not drawn)
Return: NO

Enquiry: Decide: is the reported value of composite z-score for "O=c1cccc(CCc2ccccc2)o1" equal to or greater than 0.3?
Return: NO

Enquiry: Item "[N-]=[N+]=NCc1ccccc1C[C@@]1(C(=O)N2CCOCC2)N=C(c2ccc(OCCCO)cc2)O[C@@H]1c1ccccc1CN=[N+]=[N-]" with composite z-score of 0.3 or above?
Return: YES

Enquiry: Tell me whether composite z-score is at least 0.3 here: "CC(C)(C)OC(=O)CC[C@@]1(C(=O)NCCN2CCOCC2)N=C(c2ccc(OCCCO)cc2)O[C@@H]1c1ccccc1"
Return: YES

Enquiry: Is composite z-score for C=CCC(OC(C)=O)[C@@H]1[C@@H](N(Cc2cc3ccccc3o2)C(=O)c2ccc(C)cc2)c2cc(OCCCO)ccc2N1C(=O)c1ccc2ccccc2c1 (stereo partly drawn) at or above 0.3?
Return: YES

Enquiry: Please check the record CC(C)=CCCC(C)=CC(O)C1C=CC2C(=O)N(c3ccccc3)C(=O)C2N1Nc1ccccc1 (stereo not drawn) and state if its composite z-score is at or above 0.3.
Return: YES
